species on record: Bos taurus; assay: Activity at calf intestinal adenosine deaminase type 1 by spectrophotometric assay
Active and inactive are the calls of the source. The rule behind the calls is not given here.
metric.name: Km

C[C@@H](O)[C@H]1O[C@@H](n2cnc3c(N)ncnc32)[C@H](O)[C@@H]1O	78 µM
C[C@H](O)[C@H]1O[C@H](n2cnc3c(N)ncnc32)[C@@H](O)[C@@H]1O	inactive
C[C@H](O)[C@@H]1O[C@@H](n2cnc3c(N)ncnc32)[C@H](O)[C@@H]1O	670 µM
Nc1ncnc2c1ncn2[C@H]1O[C@@H]([C@H](O)CO)[C@@H](O)[C@@H]1O	inactive

---

organism: Bos taurus; test: Activity at calf intestinal adenosine deaminase type 1 by spectrophotometric assay
Calls of active or inactive are those of the source. No cut-off for these calls is given here.
metric.name: Vmax

Known results for compounds:
Nc1ncnc2c1ncn2[C@@H]1O[C@@H]([C@@H](O)CO)[C@@H](O)[C@H]1O	0.092 µmol/min/mg
Nc1ncnc2c1ncn2[C@H]1O[C@@H]([C@H](O)CO)[C@@H](O)[C@@H]1O	inactive
C[C@H](O)[C@@H]1O[C@@H](n2cnc3c(N)ncnc32)[C@H](O)[C@@H]1O	0.326 µmol/min/mg
C[C@H](O)[C@H]1O[C@@H](n2cnc3c(N)ncnc32)[C@H](O)[C@H]1O	25 µmol/min/mg

// moving on: another record for Vmax
May I ask what Vmax has been recorded for C[C@H](O)[C@@H]1O[C@H](n2cnc3c(N)ncnc32)[C@@H](O)[C@@H]1O ?
inactive

---

species: Bos taurus; test: Activity at calf intestinal adenosine deaminase type 1 by spectrophotometric assay
Activity calls are given as the source filed them. The rule behind the calls is not given here.
metric.name: Vmax

Known results for molecules:
C[C@H](O)[C@H]1O[C@@H](n2cnc3c(N)ncnc32)[C@H](O)[C@@H]1O	61 µmol/min/mg
C[C@H](O)[C@H]1O[C@H](n2cnc3c(N)ncnc32)[C@@H](O)[C@@H]1O	inactive
C[C@@H](O)[C@@H]1O[C@@H](n2cnc3c(N)ncnc32)[C@H](O)[C@@H]1O	inactive
C[C@@H](O)[C@@H]1O[C@@H](n2cnc3c(N)ncnc32)[C@H](O)[C@H]1O	0.105 µmol/min/mg
C[C@@H](O)[C@@H]1O[C@H](n2cnc3c(N)ncnc32)[C@@H](O)[C@@H]1O	inactive

May I ask what Vmax has been recorded for C[C@@H](O)[C@H]1O[C@@H](n2cnc3c(N)ncnc32)[C@H](O)[C@@H]1O ?
0.792 µmol/min/mg

May I ask what Vmax has been recorded for C[C@@H](O)[C@H]1O[C@H](n2cnc3c(N)ncnc32)[C@@H](O)[C@@H]1O ?
inactive

May I ask what Vmax has been recorded for Nc1ncnc2c1ncn2[C@@H]1O[C@H]([C@@H](O)CO)[C@H](O)[C@H]1O ?
0.178 µmol/min/mg

May I ask what Vmax has been recorded for Nc1ncnc2c1ncn2[C@@H]1O[C@H](CO)[C@@H](O)[C@H]1O ?
220 µmol/min/mg

---

experiment: Inhibition of calf intestinal adenosine deaminase type 1 by spectrophotometric assay; parameters: species or system Bos taurus; conditions: read-out: Ki
metric.name: pKi
// returns pKi (minus log10 of molar concentration), number only

Known results for compounds:
Nc1ncnc2c1ncn2[C@H]1O[C@H]([C@@H](O)CO)[C@H](O)[C@@H]1O	3.92
Nc1ncnc2c1ncn2[C@@H]1O[C@@H]([C@@H](O)CO)[C@@H](O)[C@H]1O	3.92
Nc1ncnc2c1ncn2[C@@H]1O[C@H]([C@H](O)CO)[C@H](O)[C@@H]1O	3.17
Nc1ncnc2c1ncn2[C@H]1O[C@H]([C@H](O)CO)[C@H](O)[C@@H]1O	3.62

// moving on: another record for pKi
May I ask what pKi has been recorded for Nc1ncnc2c1ncn2[C@@H]1O[C@H]([C@@H](O)CO)[C@H](O)[C@H]1O ?
3.74
